- Tested on: SUM149PT spheroids with HUVEC/MSC, viability
- Experimental details: Anticancer human tumor SUM149PT cell line growth inhibition [GQUAD];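 note: spheroids exposed to drugs for seven days before readout; percent viability relative to DMSO vehicle control taken as 100%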
- Settings: second compound 10 µM; first compound 10 µM; stronger effect = lower value
Metric: viability, T/C (%)
# value in %; strip the unit string

Some solved cases for reference:
- Compound: "O=C(c1cc(Cc2n[nH]c(=O)c3ccccc23)ccc1F)N1CCN(C(=O)C2CC2)CC1 + Cc1[nH]c2ccc(F)cc2c1-c1nc2c3cccnc3c3ncccc3c2[nH]1"
  Test system: "SUM149PT spheroids with HUVEC/MSC, viability"
  Unit of measure: "%"
  Test result: 73.5
- Compound: "COc1cccc2c1C(=O)c1c(O)c3c(c(O)c1C2=O)CC(O)(C(=O)CO)CC3OC1CC(N)C(O)C(C)O1 (stereo not drawn) + Cc1[nH]c2ccc(F)cc2c1-c1nc2c3cccnc3c3ncccc3c2[nH]1"
  Test system: "SUM149PT spheroids with HUVEC/MSC, viability"
  Unit of measure: "%"
  Test result: 0.4

Next:
I would be grateful if you could share the reported viability, T/C for Nc1ccn(C2OC(CO)C(O)C2(F)F)c(=O)n1 (stereo not drawn) + Cc1[nH]c2ccc(F)cc2c1-c1nc2c3cccnc3c3ncccc3c2[nH]1 . 11.6

* * *

- System: SUM149PT spheroids with HUVEC/MSC, viability
- Experimental details: Anticancer human tumor SUM149PT cell line growth inhibition [GQUAD];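 note: spheroids exposed to drugs for seven days before readout; percent viability relative to DMSO vehicle control taken as 100%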
- Settings: second compound 0.1 µM; first compound 3.16 µM; stronger effect = lower value
Metric: viability, T/C (%)
# value in %; strip the unit string

Some solved cases for reference:
- Compound: "O=C(NO)c1cnc(N2CCN(S(=O)(=O)c3ccc4ccccc4c3)CC2)nc1 + CN(C)c1ccc(Nc2c3ccc(NC(=O)CCN4CCCC4)cc3nc3cc(NC(=O)CCN4CCCC4)ccc23)cc1"
  viability, T/C, %: 1.32
- Compound: "CC(=O)O[C@H]1C(=O)[C@@]2(C)[C@H]([C@H](OC(=O)c3ccccc3)[C@]3(O)C[C@H](OC(=O)[C@H](O)[C@@H](NC(=O)c4ccccc4)c4ccccc4)C(C)=C1C3(C)C)[C@]1(OC(C)=O)CO[C@@H]1C[C@@H]2O + Cc1[nH]c2ccc(F)cc2c1-c1nc2c3cccnc3c3ncccc3c2[nH]1"
  viability, T/C, %: 19.3
- Compound: "CC1COCCN1c1cc(C2(O)CC3CCC(C2)O3)c2cnn(-c3ccn[nH]3)c2n1 (stereo not given) + Cc1[nH]c2ccc(F)cc2c1-c1nc2c3cccnc3c3ncccc3c2[nH]1"
  viability, T/C, %: 23.9

I would be grateful if you could share the reported viability, T/C for CCCS(=O)(=O)Nc1ccc(F)c(C(=O)c2c[nH]c3ncc(-c4ccc(Cl)cc4)cc23)c1F + Cc1cnc(CNC(=O)c2c(=O)c3ccc(N4CCCN(C)CC4)nc3n3c2sc2ccccc23)cn1 . 50

What do you have for CC1COCCN1c1cc(C2(S(C)(=N)=O)CC2)nc(-c2ccnc3[nH]ccc23)n1 (stereo not given) + Cc1[nH]c2ccc(F)cc2c1-c1nc2c3cccnc3c3ncccc3c2[nH]1 ? 41.9

* * *

- System: SUM149PT spheroids with HUVEC/MSC, viability
- Experimental details: Anticancer human tumor SUM149PT cell line growth inhibition [GQUAD]; active = viability on the fitted dose curve at most 10% of control; inactive = the rest;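 note: spheroids exposed to drugs for seven days before readout; percent viability relative to DMSO vehicle control taken as 100%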
- Settings: second compound 10 µM; first compound 10 µM
// one of YES (active), NO (inactive), no free text

I'd appreciate the recorded outcome for O=c1[nH]cc(F)c(=O)[nH]1 + CN(C)c1ccc(Nc2c3ccc(NC(=O)CCN4CCCC4)cc3nc3cc(NC(=O)CCN4CCCC4)ccc23)cc1 from this test. NO

What do you have for CC1COCCN1c1cc(C2(O)CC3CCC(C2)O3)c2cnn(-c3ccn[nH]3)c2n1 (stereo not drawn) + Cc1cnc(CNC(=O)c2c(=O)c3ccc(N4CCCN(C)CC4)nc3n3c2sc2ccccc23)cn1 ? YES

What do you have for COc1cc(C2c3cc4c(cc3C(OC3OC5COC(C)OC5C(O)C3O)C3COC(=O)C23)OCO4)cc(OC)c1O (stereo not drawn) + Cc1cnc(CNC(=O)c2c(=O)c3ccc(N4CCCN(C)CC4)nc3n3c2sc2ccccc23)cn1 ? NO
